Tested on: S. epidermidis ATCC 35984
Experiment: MIC, S. epidermidis ATCC 35984
Assay type: cell-based
Conditions: Staphylococcus epidermidis, ATCC35984; S. epidermidis ATCC 35984; read-out: MIC
MEASURE: MIC (µg/mL)
The figure you give is taken to be in µg/mL; do not add the unit.

Recorded results for 2 compounds are shown here.
CN(C)[C@@H]1C(O)=C(C(N)=O)C(=O)[C@@]2(O)C(O)=C3C(=O)c4c(O)cccc4[C@@](C)(O)[C@H]3C[C@@H]12
0.25
CC[C@H]1OC(=O)[C@H](C)[C@@H](O[C@H]2C[C@@](C)(OC)[C@@H](O)[C@H](C)O2)[C@H](C)[C@@H](O[C@@H]2O[C@H](C)C[C@H](N(C)C)[C@H]2O)[C@](C)(O)C[C@@H](C)C(=O)[C@H](C)[C@@H](O)[C@]1(C)O
4

Kindly note the recorded MIC for O=C(Nc1ccc(Cl)c(C(F)(F)F)c1)Nc1ccc(Cl)c(C(F)(F)F)c1 , which is 0.25

* * *

Tested on: MRSA ATCC 33592
Experiment: MIC, MRSA ATCC 33592
Assay type: cell-based, methicillin-resistant Staphylococcus aureus
Details: Staphylococcus aureus; MRSA ATCC 33592; Table 6; read-out: MIC
MEASURE: MIC

C#Cc1cccc(NC(=O)C(CC=C)C(=O)Nc2cccc(C#C)c2)c1
> 32 µg/mL
C=CCNC(=O)C(CCCl)C(=O)NCC=C
> 64 µg/mL
O=C(Nc1cc(Cl)cc(Cl)c1)C(CCCl)C(=O)Nc1cc(C(F)(F)F)cc(C(F)(F)F)c1 (centres unmarked)
0.5 µg/mL
C=CCC(C(=O)Nc1cc(Cl)cc(Cl)c1)C(=O)Nc1cc(Cl)cc(Cl)c1
> 32 µg/mL

Kindly note the recorded MIC for CCCCNC(=O)C(CCCl)C(=O)Nc1ccc(Cl)c(C(F)(F)F)c1 (centres unmarked) , which is > 64 µg/mL

Kindly note the recorded MIC for O=C(Nc1cc(Cl)cc(Cl)c1)C(CCCl)C(=O)Nc1ccc(Cl)c(C(F)(F)F)c1 (centres unmarked) , which is 0.25 µg/mL

Kindly note the recorded MIC for O=C(Nc1ccc(Cl)c(C(F)(F)F)c1)C(CCCl)C(=O)NC1CCCCC1 (centres unmarked) , which is > 64 µg/mL

Kindly note the recorded MIC for O=C(Nc1ccc(OC(F)(F)F)cc1)C(CCCl)C(=O)Nc1ccc(OC(F)(F)F)cc1 , which is 1 µg/mL

* * *

System: S. aureus NCTC 8325
Assay: MIC, S. aureus NCTC 8325 (CLSI broth microdilution / agar dilution)
Assay type: cell-based, Staphylococcus aureus
Conditions: Staphylococcus aureus; MSSA NCTC 8325; Table 6; read-out: MIC
MEASURE: MIC

Kindly note the recorded MIC for CCCNC(=O)C(CCCl)C(=O)Nc1ccc(Cl)c(C(F)(F)F)c1 (stereo not drawn) , which is > 64 µg/mL

Kindly note the recorded MIC for O=C(NC1CCCCC1)C(CCCl)C(=O)NC1CCCCC1 , which is > 64 µg/mL

Kindly note the recorded MIC for O=C(Nc1ccc(Cl)c(C(F)(F)F)c1)C(CCCl)C(=O)NC1CCCCC1 (stereo not drawn) , which is > 64 µg/mL

Kindly note the recorded MIC for Cc1ccc(NC(=O)C(CCCl)C(=O)Nc2ccc(C)c(O)c2)cc1O , which is 8 µg/mL

Kindly note the recorded MIC for O=C(Nc1ccc(Cl)c(O)c1)C(CCCl)C(=O)Nc1ccc(Cl)c(O)c1 , which is > 16 µg/mL

Kindly note the recorded MIC for O=C(Nc1cc(Cl)cc(Cl)c1)C(CCCl)C(=O)Nc1ccc([N+](=O)[O-])c(C(F)(F)F)c1 (stereo not drawn) , which is 0.5 µg/mL

Kindly note the recorded MIC for C=CCNC(=O)C(CCCl)C(=O)NCC=C , which is > 64 µg/mL

Kindly note the recorded MIC for C#Cc1cccc(NC(=O)C(CCCl)C(=O)Nc2cccc(C#C)c2)c1 , which is > 8 µg/mL

Kindly note the recorded MIC for O=C(Nc1cc(Cl)cc(Cl)c1)C(CCCl)C(=O)Nc1ccc(Cl)c(C(F)(F)F)c1 (stereo not drawn) , which is 0.25 µg/mL

The measurements presented in this section are drawn from patent US10800732B2.
